B1: Azoarcus group I ribozyme (parent)
chain: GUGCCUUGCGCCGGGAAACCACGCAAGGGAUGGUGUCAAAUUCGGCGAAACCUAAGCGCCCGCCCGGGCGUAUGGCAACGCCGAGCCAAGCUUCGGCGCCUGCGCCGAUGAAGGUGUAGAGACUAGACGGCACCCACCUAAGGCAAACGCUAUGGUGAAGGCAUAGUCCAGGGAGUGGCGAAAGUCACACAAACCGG

Variants of: B1
Experiment: reverse-splicing fitness (ratio to wild type); higher = more active; in vitro selection; Mg2+ level not given
Cut-off 0.004 on reverse-splicing fitness, inclusive. At or above means 1; below means -1.

Below are worked cases with known answers.
VARIANT_NAME: C82G A111G A120G A145G C150G C169G U176C
CATEGORY: 1

VARIANT_NAME: C150A C169G U176G
CATEGORY: 1

VARIANT_NAME: C82U A111C A120C A145U C150A C169U U176C
CATEGORY: 1

VARIANT_NAME: C82A A120U C150U C169U
CATEGORY: 1

VARIANT_NAME: A111C A120C A145U C169A
CATEGORY: 1

**Q:** Textbook exercise: given the entry C82G A111C A120U A145G C150U , state whether its reverse-splicing fitness is greater than or equal to 0.004.
**A:** 1

**Q:** Textbook exercise: given the entry C82G A111C A145C C150A C169A U176A , state whether its reverse-splicing fitness is greater than or equal to 0.004.
**A:** 1

**Q:** Textbook exercise: given the entry C82A A111G C150G C169G U176G , state whether its reverse-splicing fitness is greater than or equal to 0.004.
**A:** 1

Data provenance is the RNAGym collection of RNA variant scans (doi:10.1093/molbev/msab373).
